experiment: yeast display, Sf9 membrane polyspecificity reagent, FACS + sequencing; frameworks hold sequencing errors
READOUT TYPE: polyreactivity (PSR sort gate)

QVQRVESAGGLVQAGGSLRLSCAPSGRILPSNAMGWYRQAPGKERELVAGITSGGSTDYADSVKGRFTISRDNAKNTVYIQMHSLKPEDTAVYYCAADSRRYGVRFDYWGQGTQVTVSS :: low polyreactivity
QDQHVESGGGLVQAGGSLRLSCAASGSTFPYYAMGWYRQAPGKERELVAAITSSGGSTYYADSVKGRFTISRVNAKNTVYLQMNSLKPEDTAVYYCANGYGPYRQMNYWGQGTQVTVSS :: low polyreactivity
QVQLVESGGGLVQAGGSLRLSCAASGSIFVGYAMGWYRQAPGKEREMVAAITGSGTRTYYADSVKGRFTISRDNAKNTVYLQMNSLKPEDTAVYYCAAPLSYKNVKYDYWGQGTQVTVSS :: low polyreactivity
QVQLVESGGGLVQAGGSLRLSCAASGYTFRVYTMGWYRQAPGTERELVAAISRRGSRTYYADSVKGRFTISRDNAKNTVYLQMNSLKPEDTAVYYCAAGIPYPDDYWGQGSQVTVSS :: high polyreactivity

Now for another entry.
State, in one line, measured polyreactivity (PSR sort gate) of QVQLVESGGGLVQAGGSLRLSCAASGSNFIWYVMGWYRQAPGKEREFVAAINWRGTSTYYADSVKGRFTISRDNAKNTVYLQMNSLKPEDTAVYYCAARVTYRGRAYDYWGQGTQVTVSS
high polyreactivity

----------
test: yeast display, Sf9 membrane polyspecificity reagent, FACS + sequencing; frameworks hold sequencing errors
READOUT TYPE: polyreactivity (PSR sort gate)

QVQLVESGGGLVQAGGSLRLSCAASGRIFRRYAMGWYRQAPGKERELVAAISTSGGSTYYADSVKGRFTISRDNAKNTVYLQMNSLKPEDTAVYYCNVYKPPTRGGVLQYGYWGQGTQVTVSS :: low polyreactivity
QVQIVESGGGLVQAGCSLRLSCAASGHTFTIKAMGWYRQAPGKERELVAAITFSGGRTYYADSVKGRFTISRDNAKNTVYLQMNSLKPEDTAVYYFAADNPGGSIYDYWGQGTQVNVSS :: low polyreactivity
QVQLVESGGGLVQAGGSLRLSCAASGFIFGDNAMGWYRQAPGKERELVAAITYSGGSTYYADSVKGRFTISRDYAKNTVYLQMNSLKPEDTAVYDCAASNQWSSTYLTYGYYYWGQGTQVTVSS :: low polyreactivity

----------
test: yeast display, Sf9 membrane polyspecificity reagent, FACS + sequencing; frameworks hold sequencing errors
READOUT TYPE: polyreactivity (PSR sort gate)

QVQLVESGGGLVQAGGSLRLSCAASGITFRYYAMGWYRQGPGKERELVASITSGGVNTYYADSVKGRFTISRDNANNTDYLQMNSLKPEDTAVFYCATRFSYSALGGYDYWGQGTQVTVSS :: low polyreactivity
QVQLVESGGGLVQAGGSLRLSCAASGRTFGYNGMGWYRQAPGKERELVAAINSGGNTNYADSVKGRFTISRDNAKNTVYLQMNSLKPEDTSVYYCAKYGTLFEPVPNEYDYWGQGTQVTVSS :: low polyreactivity

----------
test: yeast display, Sf9 membrane polyspecificity reagent, FACS + sequencing; frameworks hold sequencing errors
READOUT TYPE: polyreactivity (PSR sort gate)

QVQLVESGGGLVQAGGSLRLSCAASGSTFANYAMGWYRQAPGKERELVAAISRGGNTYYADSVKVRFTISRDNAKNTVYLQMNSLKPEDTAVYYCAKYTYYSRPGDSDSDYWGQGTQVTVSS :: high polyreactivity
QFQLVESGGGLVQAGVVSLKLCCLRKHFIYYAMAWSRQAPWKDTELVAGINSGGSTKYADSVKRRFTISRDNAKNSVYLQMNSLKPEDTAVYYCNADSYSPVIQEYDYWGQGTQVTVSS :: low polyreactivity
QVQLVESGGALDQAGGSLRLSCAASGSTFYYYAMGWYRQAPGKERELVAAISTSDGSTYYADSVKGRFTISRDNAKNTVYLQMNSLKPEDTAVYYCAADSHDRFPSYYYWGQGTQVTVSS :: low polyreactivity
QVQLVESWGGLVQSGGSLRLSCAASGSIFSFYPMGWYRQAPGKERELVAAISSGGSTYYADSVKGRFTISRDNAKNTVYLQMNSLKPEDTAVYYCAADQHIRVSWYLQMYYWGQGTQVTVSS :: low polyreactivity

Look up and report measured polyreactivity (PSR sort gate) for this entry: QVQLVESGGGLVQAGGSLRLSCAASGRTFRGYAMGWYRQAPGKERELVAGITQRGGTTYYADSVKGRFTISRDNAKNTVYLQMNSLKPEDSAVYYCAAAFGRVTKYGYRNQYGYWGHGTQVTVSS
high polyreactivity
